Molecular target: NanoLuc-VHL (Homo sapiens)
Assay: NanoBRET tracer displacement, live HEK293T cells
pIC50: −log10 of the molar value.

| compound | pIC50 |
| --- | --- |
| CC(C)(C)[C@H](NC(=O)c1cnn2c1OCCC2)C(=O)N1C[C@H](O)C[C@H]1C(=O)NCc1ccc(-c2ccc(Cl)cc2Cl)cc1 [compound 1] | 6.06 |

====

Target: VHL:GEMIN3aa41-268 (VBC with purified GEMIN3aa41-268) (Homo sapiens, UniProt P40337+Q9UHI6)
Sequence (P40337 whole entry, the tested form may be a part): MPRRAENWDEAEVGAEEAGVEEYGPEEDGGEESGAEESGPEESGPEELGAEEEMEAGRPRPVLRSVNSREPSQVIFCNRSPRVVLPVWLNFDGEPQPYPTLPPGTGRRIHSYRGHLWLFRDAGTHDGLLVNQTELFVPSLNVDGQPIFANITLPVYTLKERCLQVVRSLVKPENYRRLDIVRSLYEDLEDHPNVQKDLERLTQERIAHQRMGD
Sequence (Q9UHI6 41-268): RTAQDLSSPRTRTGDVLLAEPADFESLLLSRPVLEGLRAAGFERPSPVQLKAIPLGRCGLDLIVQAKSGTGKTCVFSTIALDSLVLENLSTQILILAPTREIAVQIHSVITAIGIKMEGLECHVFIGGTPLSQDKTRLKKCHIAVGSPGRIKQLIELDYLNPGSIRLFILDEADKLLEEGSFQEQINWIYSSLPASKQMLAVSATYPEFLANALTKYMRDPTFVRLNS
Sequence (Q15369 whole entry, further chain, the tested form may be a part): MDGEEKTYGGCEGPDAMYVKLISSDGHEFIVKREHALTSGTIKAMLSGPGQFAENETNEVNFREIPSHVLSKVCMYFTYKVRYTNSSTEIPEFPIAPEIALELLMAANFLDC
Sequence (Q15370 whole entry, further chain, the tested form may be a part): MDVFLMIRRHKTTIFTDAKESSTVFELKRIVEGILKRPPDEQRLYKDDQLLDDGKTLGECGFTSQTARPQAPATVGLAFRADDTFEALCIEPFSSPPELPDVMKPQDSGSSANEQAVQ
Experiment: SPR, immobilised GEMIN3aa41-268, pre-formed VBC:compound complex as analyte
pKd: −log10 of the molar value.
recorded.metric: pKd

| smiles.code | numeric.result |
| --- | --- |
| CC(C)(C)[C@H](NC(=O)c1cnn2c1OCCC2)C(=O)N1C[C@H](O)C[C@H]1C(=O)NCc1ccc(-c2ccc(Cl)cc2Cl)cc1 | 7.16 |
| CC(C)(C)[C@H](NC(=O)c1cnn2c1CCCC2)C(=O)N1C[C@H](O)C[C@H]1C(=O)NCc1ccc(-c2ccc(Cl)cc2Cl)cc1 | 7.14 |
| CC(C)(C)[C@H](NC(=O)c1cnn2c1OCCC2)C(=O)N1C[C@H](O)C[C@H]1C(=O)NCc1ccc(-c2ccc(Cl)cc2)cc1 | 6.31 |

The values you see were collected from paper doi:10.1101/2025.03.19.644003v1.
